- Substrate: F protein of hRSV strain B-1 (human respiratory syncytial virus, strain B-1 (ATCC VR-1580)) (UniProt P13843)
- assayMethodText: cell-based or functional assay
parameterMeasured: Neutralization IC50 (nM), B-1 (first assay)
Reply with just the number (in nM).

According to the records, this binder NC41v18 (VHH) VHH: EVQLLESGGGLVQPGGSLRLSCAASGGSLSNYVLGWFRQAPGKGREFVAAINWRDDITIGPPNVEGRFTISRDNSKNTLYLQMNSLRPEDTAVYYCGAGTPLNPGAYIYDWSYDYWGQGTLVTVSS displays Neutralization IC50 (nM), B-1 (first assay) of 728

Looking up NC41v06 (VHH) VHH: EVQLLESGGGLVQPGGSLRLSCAASGGSLSNYVLGWFRQAPGKGREFVAAINWRDDITIGPPNVEGRFTISRDNAKNTLYLQMNSLRPEDTAVYYCGAGTPLNPGAYIYDWSYDYWGQGTLVTVSS , I found its Neutralization IC50 (nM), B-1 (first assay) recorded as 806

Briefly, Neutralization IC50 (nM), B-1 (first assay) measured for NC41v03 (VHH) VHH: EVQLLESGGGLVQPGGSLRISCAASGGSLSNYVLGWFRQAPGKGREFVAAINWRGDITIGPPNVEGRFTISRDNSKNTLYLQMNSLRPEDTAVYYCGAGTPLNPGAYIYDWSYDYWGQGTLVTVSS : 1510

Lookup result for NC41 (VHH) VHH: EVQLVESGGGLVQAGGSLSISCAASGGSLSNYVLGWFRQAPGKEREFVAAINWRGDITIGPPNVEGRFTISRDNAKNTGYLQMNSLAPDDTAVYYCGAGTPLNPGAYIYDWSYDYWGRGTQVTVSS ; measured Neutralization IC50 (nM), B-1 (first assay): 4710
